# Test system: OVCAR-3 ovarian
# measurement notes: NCI tumour cell line growth inhibition, 48 h
Overview of reported TGI across a group of compounds:

Consider the reported TGI for these compounds:
COC(=O)C12C3C4C1C1C2C3C41C(=O)NC(C)(C)CC(=O)O (stereo not given)	> 100 µM
O=C1/C(=C/c2ccc(Cl)cc2Cl)CN(S(=O)(=O)c2ccccc2)C/C1=C\c1ccc(Cl)cc1Cl	0.62 µM
CC1(C)CCCC2(C)[C@@H]1CC[C@@]13CC(=O)[C@@](C)(CC[C@@H]21)C3 (stereo not given in full)	> 100 µM
COc1ccc(CN(Cc2ccc(OC)cc2)C(=O)CC2(O)CCc3ccccc3C2)cc1 (stereo not given)	> 100 µM
NC(N)=N/N=C(/CCN1CCCC1)CC(c1ccccc1)c1c(O)c2ccccc2oc1=O (stereo not given)	> 100 µM
CN1C(=O)C(O)CC1c1ccc(C(F)(F)F)cc1 (stereo not given)	> 100 µM
CC1=NOC(C)(O)/C1=N/O (stereo not given)	> 100 µM
CN1CCN(CCCOc2ccc3ncnc(Nc4ccc(OCc5cccc(F)c5)c(Cl)c4)c3c2)CC1	2.92 µM

Now turn to the next compound.
In: Form field: TGI recorded for CCn1cc(C2NC(=O)c3ccccc3N2)c2cccc(C)c21 (stereo not given) with OVCAR-3 ovarian (enter value)
Out: 1.02 µM
